Data origin, for the record: patent US20160145322A1

Molecular target: T1, Sym-1706 (RSV G central conserved domain (CCD) peptide, type A 145-184) (Respiratory syncytial virus type A, N-terminal biotin)
T1 construct: Synthetic peptide, C-terminally truncated against Sym-1705
T1 peptide: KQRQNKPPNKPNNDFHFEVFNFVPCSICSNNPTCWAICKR
Experiment: ELISA, biotinylated peptide on avidin plate
REPORTED_PROPERTY: binding result

### Prompt Which binding result is reported for this binder? CB072.1L (antibody, V domains shown, Tested as human IgG from the pCP9-lambda vector; also called CB072.IL) VH: QLQLQESGPGLVKPSETLSLTCTVSGGSISSNIHYWAWIRQTPGKGLEWIGYMFYGGVAFYNPSLKSRVAISVDTSKNQFSLRLTSASAADTAVYYCARVLVASTNWFDPWGQGTLVTVSS VL: SYVLTQPPSVSVAPGGTARITCGGDNIGTKGVHWYQQKPGQAPVLVMYYNSDRPTGVPERFSGSNSGNTATLTISRLEAGDEADYYCHVWDSSGSDHVEVFGGGTKLTVL
### Response binds

### Prompt Which binding result is reported for this binder? CB047.1 (antibody, V domains shown, Tested as human IgG from the pCP9-kappa vector) VH: EVQLVESGGGLVQPGGSLRLSCAASGFSFSNYAMSWVRQAPGKGLEWVSDISGSGNSTNFADSVKGRFTISRDNSKNTLYLQMSSLRAEDTAVYYCAKFRVPTYCVNGICYQGLPGFDIWGQGTMVTVSS VL: DIQMTQSPSSLSASVGDRVTITCQASQDISDYLNWYQQKPGKAPKLLIYDASNLETGVPSRFSASGSGTDFTFTISSLQPEDIATYYCQHYHNLPPLFGGGTKVEIK
### Response binds

### Prompt Which binding result is reported for this binder? CB071.1L (antibody, V domains shown, Tested as human IgG from the pCP9-lambda vector) VH: QVQLVQSGAEVKKPGSSVRVSCKASGGTFSRYVITWVRQAPGQGLEWMGGSIPIIDTSTYAQKFQDRVTITADKSTSTVYLELSSLRPEDTAIYYCAKVFFFSNSSGPPTEGPAFDVWGQGTMVTVSS VL: SYELTQPPSVSVSPGQTASITCSGHELGDKYVSWYQQKPGQSPVLLIYQDTNRPAGIPERFSGSNSGSTAFLTISATQAMDEADYYCQAWDNSHVVFGGGTKLTVL
### Response binds
